test: Plasma concentration in rats after 7 hr at 30mg/kg oral dose; format: ADME, organism-based; details: rat, read-out: Conc_plasma

[
  {
    "Smiles String": "CN(C)C(=O)N1CCN(S(=O)(=O)N2CC=C(c3ccc(F)cc3)CC2)[C@@H](C(=O)NO)C1",
    "Display Unit": "ng/mL",
    "concentration at 7 h": 233
  }
]

----------
assay: Area under curve was determined in rat after oral administration at a concentration 30 mg/kg; type: ADME, organism-based; set-up: dose 30 mg/kg, route oral; details: in vivo

[
  {
    "Smiles String": "CN(C)S(=O)(=O)N1CCN(S(=O)(=O)N2CC=C(c3ccc(F)cc3)CC2)[C@@H](C(=O)NO)C1",
    "AUC": "3270 ng·h/mL"
  },
  {
    "Smiles String": "CN(C)P(=O)(N(C)C)N1CCN(S(=O)(=O)N2CC=C(c3ccc(F)cc3)CC2)[C@@H](C(=O)NO)C1",
    "AUC": "1540 ng·h/mL"
  },
  {
    "Smiles String": "O=C(NO)[C@H]1CN(C(=O)N2CCOCC2)CCN1S(=O)(=O)N1CC=C(c2ccc(F)cc2)CC1",
    "AUC": "7940 ng·h/mL"
  },
  {
    "Smiles String": "CN(C)C(=O)N1CCN(S(=O)(=O)N2CC=C(c3ccc(F)cc3)CC2)[C@@H](C(=O)NO)C1",
    "AUC": "6180 ng·h/mL"
  },
  {
    "Smiles String": "CNC(=O)N1CCN(S(=O)(=O)N2CC=C(c3ccc(F)cc3)CC2)[C@@H](C(=O)NO)C1",
    "AUC": "1790 ng·h/mL"
  },
  {
    "Smiles String": "O=C(NO)[C@H]1CN(CC(F)(F)F)CCN1S(=O)(=O)N1CC=C(c2ccc(F)cc2)CC1",
    "AUC": "3260 ng·h/mL"
  }
]
